# TEST_METHOD_NOTES: self-splicing fitness, log relative to wild type (ln ratio); higher = more splicing; Tetrahymena group I intron in knt gene, E. coli kanamycin selection, DiMSum; sequences stand for … in CUCUCU…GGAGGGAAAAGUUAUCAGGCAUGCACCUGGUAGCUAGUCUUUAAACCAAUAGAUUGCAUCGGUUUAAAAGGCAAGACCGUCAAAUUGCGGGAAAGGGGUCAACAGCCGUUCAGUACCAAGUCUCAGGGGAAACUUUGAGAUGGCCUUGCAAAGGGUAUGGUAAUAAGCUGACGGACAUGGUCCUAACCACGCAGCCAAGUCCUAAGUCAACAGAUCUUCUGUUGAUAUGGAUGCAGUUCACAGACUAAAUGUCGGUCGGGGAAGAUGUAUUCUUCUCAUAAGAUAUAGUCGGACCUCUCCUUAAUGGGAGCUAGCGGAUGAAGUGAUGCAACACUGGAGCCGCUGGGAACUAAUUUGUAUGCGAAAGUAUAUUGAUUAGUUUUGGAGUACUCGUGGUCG;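 note: selection with 25 µg/mL kanamycin versus none on LB agar overnight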
# TEST_PARAMETERS: 30 °C
OUTCOME_MEASURE: self-splicing fitness (ln)
Reply with just the number.

Which value of self-splicing fitness (ln) has been reported for UAUUAGCAAUAUUACGUUCA in the records?
-1.04

Sample UCGCAGCAAUAUUACGAAGU — what was its self-splicing fitness (ln)?
-3.51

State the recorded self-splicing fitness (ln) for this entry: GACAAGCAAUAUUACGCAGU
-3.47

Recorded self-splicing fitness (ln) of ACCGAGCAAUAUUACGUUCC , please.
-2.7

Bench note: what self-splicing fitness (ln) did CCAGAGCAAUAUUACGUGUU show?
-3.64

Give the measured self-splicing fitness (ln) of CUGUAGCAAUAUUACGGGUA .
-1.96

// query self-splicing fitness (ln) value for entry CAAUAGCAAUAUUACGAAUA
-2.97

For the sequence shown here, CAGAAGCAAUAUUACGCUGA , give the reported self-splicing fitness (ln).
-2.87

Any idea what its self-splicing fitness (ln) is? The sequence is UUCAAGCAAUAUUACGUUUG
-3.95

Which self-splicing fitness (ln) is reported for this sequence? UGACAGCAAUAUUACGAAGU
-3.26

GET /values?readout=self-splicing fitness (ln)&item= UACAAGCAAUAUUACGUUCA
-0.621

Return reported self-splicing fitness (ln); argument: CCUUAGCAAUAUUACGUACU
-2.32

# self-splicing fitness (ln) lookup, item AUUUAGCAAUAUUACGGUGC
-4.12

I have this sequence here, CUUAAGCAAUAUUACGCAGC , and I need its recorded self-splicing fitness (ln).
-3.43

# input sequence: CGUUAGCAAUAUUACGACAG ; wanted: its self-splicing fitness (ln)
0.473

Returns the measured self-splicing fitness (ln) for the input sequence. Input: GUUAAGCAAUAUUACGUGCG
-0.344
